src = ChEMBL document CHEMBL1154962

- TARGET_UNDER_TEST: Platelet-derived growth factor receptor alpha (Homo sapiens) (UniProt P16234)
- Sequence (P16234 whole entry): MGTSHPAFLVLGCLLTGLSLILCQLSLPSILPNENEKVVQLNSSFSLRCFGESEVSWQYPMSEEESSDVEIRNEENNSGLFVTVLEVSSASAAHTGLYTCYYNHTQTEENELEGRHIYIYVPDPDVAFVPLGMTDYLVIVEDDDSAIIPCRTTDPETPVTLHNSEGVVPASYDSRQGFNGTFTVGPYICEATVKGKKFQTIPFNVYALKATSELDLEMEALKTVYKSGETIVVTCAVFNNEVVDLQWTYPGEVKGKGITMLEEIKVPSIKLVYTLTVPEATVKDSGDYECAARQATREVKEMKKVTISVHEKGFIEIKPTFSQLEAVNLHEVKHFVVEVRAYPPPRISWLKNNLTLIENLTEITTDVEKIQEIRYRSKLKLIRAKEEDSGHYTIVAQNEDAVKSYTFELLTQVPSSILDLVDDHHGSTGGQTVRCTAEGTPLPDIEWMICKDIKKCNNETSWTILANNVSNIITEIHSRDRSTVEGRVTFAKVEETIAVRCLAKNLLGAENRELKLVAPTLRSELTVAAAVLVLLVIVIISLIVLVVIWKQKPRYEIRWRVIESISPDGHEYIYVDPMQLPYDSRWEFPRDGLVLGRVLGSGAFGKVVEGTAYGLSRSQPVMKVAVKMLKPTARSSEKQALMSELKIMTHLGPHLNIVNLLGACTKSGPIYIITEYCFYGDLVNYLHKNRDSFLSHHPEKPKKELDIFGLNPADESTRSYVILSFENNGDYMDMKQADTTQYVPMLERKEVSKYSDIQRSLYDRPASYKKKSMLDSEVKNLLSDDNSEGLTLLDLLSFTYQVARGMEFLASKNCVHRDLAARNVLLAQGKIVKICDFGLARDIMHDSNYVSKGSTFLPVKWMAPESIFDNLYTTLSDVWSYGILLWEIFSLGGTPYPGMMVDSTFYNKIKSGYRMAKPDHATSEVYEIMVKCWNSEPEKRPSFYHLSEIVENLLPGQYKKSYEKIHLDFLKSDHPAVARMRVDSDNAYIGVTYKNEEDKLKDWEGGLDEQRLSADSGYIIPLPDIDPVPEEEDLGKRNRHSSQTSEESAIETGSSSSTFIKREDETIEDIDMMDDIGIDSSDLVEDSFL
- METHOD_DESCRIPTION: Inhibition of human PDGFRalpha assessed as remaining enzyme activity at 10 uM; values are per cent of control
MEASURED_ENDPOINT: residual activity (%)
Just the number in %, nothing appended.

Would you please look over these solved cases?
CCCCCc1nc2c(-c3ccc(Cl)cc3)n[nH]c2c(=O)n1NC(=O)c1cccc(C)c1; 92
Cc1cccc(C(=O)Nn2c(CC3CCCCC3)nc3c(-c4ccc(Cl)cc4)n[nH]c3c2=O)c1; 95
O=C(Cc1ccccc1)Nn1c(CC2CCCCC2)nc2c(-c3ccc(Cl)cc3)n[nH]c2c1=O; 77

Given CCCCc1nc2c(-c3ccc(Cl)cc3)n[nH]c2c(=O)n1NC(=O)c1ccccc1 , state its recorded residual activity.
105

Give its residual activity value. Item: CCCCCc1nc2c(-c3ccc(Cl)cc3)n[nH]c2c(=O)n1NC(=O)c1ccccc1
99
